B1: PRPH (parent)
chain: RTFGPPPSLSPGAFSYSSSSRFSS

# Variants of: B1
# experimental-protocol: protein stability index of a GFP-peptide fusion (GPS, HEK-293T) (PSI 1-6); higher = more stable;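 further: lentivirally expressed fusions sorted by FACS into six bins by GFP to DsRed ratio, PSI derived from sequencing read proportions per bin multiplied by bin number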
# reported-conditions: c terminus: a fixed tail appended
quantity-name: protein stability index
When you answer, write just the number.

[[record]]
changes = "A13I"
test_result = 3.33

[[record]]
changes = "S15T"
test_result = 3.48

[[record]]
changes = "S23F"
test_result = 3.09


Prompt: Report protein stability index, nothing else, for this variant: S15L
Completion: 2.62

Prompt: Report protein stability index, nothing else, for this variant: A13D
Completion: 3.5

Prompt: Report protein stability index, nothing else, for this variant: F3G
Completion: 3.13

Prompt: Report protein stability index, nothing else, for this variant: S19E
Completion: 3.55

Prompt: Report protein stability index, nothing else, for this variant: S17H
Completion: 2.54
